- Study System: Glutaminase kidney isoform, mitochondrial (Homo sapiens)
- Method Notes: qHTS for Inhibitors of Glutaminase (GLS): LOPAC Validation (AID 624146);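 note: glutamate product detected by oxidase and peroxidase coupled Amplex red fluorescence gain; % is set by controls: 0 for no effect and ±100 for the full control effect; nearly all actives have a fitted effect of over 60% in size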
- Experimental Parameters: glutaminase enzyme activity inhibition; series mostly up to 46.1 µM
- From the text: Glutaminase (GLS) catalyzes the hydrolysis of glutamine into glutamate and ammonia. It plays a critical role in glutaminolysis, which is an important energy source for proliferating cells. […] The overall goal of this project is to identify small molecule inhibitors of GLS through quantitative high throughput screening (qHTS) of the MLSMR. […]
Inconclusive results are not listed. Activity calls are given as the source filed them. Calls come from the whole dose curve; as a rule, active = well fitted inhibition curve with a large enough effect; inconclusive = small, poorly fitted or top-dose-only effect; inactive = no such curve, though single readings can be large or run the other way.
Endpoint Name: outcome

Query block: Return reported outcome; argument: COc1cc2nc(N3CCCN(C)CC3)nc(NC3CCN(Cc4ccccc4)CC3)c2cc1OC
Result block: inactive

Query block: Return reported outcome; argument: CCN(CC)CCn1c(=O)c(Cc2ccc(OC)cc2)nc2ccccc21
Result block: inactive

Query block: Return reported outcome; argument: COc1cc2ncnc(Nc3cccc(Cl)c3)c2cc1OC
Result block: inactive

Query block: Return reported outcome; argument: NC(=O)c1ccc2[nH]ccc2c1
Result block: inactive

Query block: Return reported outcome; argument: CC1CC2C3CCC4=CC(=O)C=C[C@]4(C)[C@@]3(F)[C@@H](O)C[C@]2(C)[C@@]1(O)C(=O)CO (stereo partly drawn)
Result block: inactive

***
Query block: Return reported outcome; argument: Nc1nc(N)c2nc(CNc3ccc(C(=O)NC(CCC(=O)O)C(=O)O)cc3)cnc2n1 (stereo not drawn)
Result block: inactive

Query block: Return reported outcome; argument: Cc1ccc(S(=O)(=O)N[C@@H](Cc2ccccc2)C(=O)CCl)cc1
Result block: inactive

Query block: Return reported outcome; argument: NC(=O)c1cccc(N)c1
Result block: inactive

###

- Method Notes: Drug repurposing screens with cells derived from glioblastoma tumor samples (AID 1345199); note: % is set by controls: 0 for no effect and ±100 for the full control effect; nearly all actives have a fitted effect of over 40% in size
- Experimental Parameters: GBM patient neurospheres viability, ATP luminescence, 48 h; at 45.9 µM (top of the series); tumour line D
Results filed as inconclusive are left out.
Endpoint Name: activity, negative = cell killing (%)
Report the figure in % without appending any unit label.

Answered examples (4):
Query block: Return reported activity, negative = cell killing; argument: CNS(=O)(=O)Cc1ccc2[nH]cc(CCN(C)C)c2c1
Result block: -2.5

Query block: Return reported activity, negative = cell killing; argument: CCOC(=O)[C@H](CCc1ccccc1)N[C@H]1CS[C@H](c2cccs2)CN(CC(=O)O)C1=O
Result block: -7.87

Query block: Return reported activity, negative = cell killing; argument: Cn1nnc2c(C(N)=O)ncn2c1=O
Result block: -16.1

Query block: Return reported activity, negative = cell killing; argument: O=NN(CCCl)C(=O)NC1CCCCC1
Result block: -13.5

Consider now this further compound.
Query block: Return reported activity, negative = cell killing; argument: COCCCOc1cc(C[C@@H](C[C@H](N)[C@@H](O)C[C@H](C(=O)NCC(C)(C)C(N)=O)C(C)C)C(C)C)ccc1OC
Result block: 12.6

###

- System: HeLa
- Method Notes: Primary qHTS to identify gynecologic anti-cancer compounds using libraries of approved drugs and bioactive compounds (AID 1345084); note: % is set by controls: 0 for no effect and ±100 for the full control effect; nearly all actives have a fitted effect of over 55% in size
- Experimental Parameters: Gynecologic cancer cell panel viability, ATPlite luminescence, 48 h; series mostly up to 57.5 µM
Inconclusive results are not listed. The source made the active and inactive calls. The call rests on the fitted dose curve; in most records, active means well fitted cell-killing curve with a large enough effect; inconclusive means small, poorly fitted or top-dose-only effect, or effect the other way; inactive means flat fitted curve, though single readings scatter.
Just give me one of these, please: active, inactive

Examples from the recorded data:
Query block: I'd appreciate the recorded outcome for O=C(O)CSCC(=O)NC1CCSC1=O (centres undefined) from this test.
Result block: inactive

Query block: I'd appreciate the recorded outcome for COc1cc2c(Nc3ccc(Br)cc3F)ncnc2cc1OCC1CCN(C)CC1 from this test.
Result block: inactive

***
Query block: I'd appreciate the recorded outcome for Nc1ccc(S(=O)(=O)Nc2ccccn2)cc1 from this test.
Result block: inactive

Query block: I'd appreciate the recorded outcome for CCN(C)C(=O)Oc1cccc([C@H](C)N(C)C)c1 from this test.
Result block: inactive

Query block: I'd appreciate the recorded outcome for CC(C)OC(=O)C(C(=O)OC(C)C)=C1SC=CS1 from this test.
Result block: inactive

Query block: I'd appreciate the recorded outcome for O=C(O)c1cn(C2CC2)c2cc(N3CCNCC3)c(F)cc2c1=O from this test.
Result block: inactive

Query block: I'd appreciate the recorded outcome for COc1nc(N)nc2c1ncn2[C@@H]1O[C@H](CO)[C@@H](O)[C@@H]1O from this test.
Result block: inactive

Query block: I'd appreciate the recorded outcome for O=C(O)c1ccc(-n2nc(-c3ccccc3O)nc2-c2ccccc2O)cc1 from this test.
Result block: inactive

Query block: I'd appreciate the recorded outcome for O=P(O)(O)C(O)(Cc1cccnc1)P(=O)(O)O from this test.
Result block: inactive
